List of Composite Synergy Score values.
tested on: Miapaca2; assay: In vitro combination synergy, Miapaca2 (Cell-Titer Glo); format: cell-based; conditions: combined with exemplary PRMT5 inhibitor, 120 h, sum of Loewe, Bliss, HSA and ZIP scores
Returns: the value as a bare number; no unit string appended.

CC1(C)CCC(c2ccc(Cl)cc2)=C(CN2CCN(c3ccc(C(=O)NS(=O)(=O)c4ccc(N[C@H](CCN5CCOCC5)CSc5ccccc5)c(S(=O)(=O)C(F)(F)F)c4)cc3)CC2)C1 ... 16
CC1(C)CCC(CN2CCN(c3ccc(C(=O)NS(=O)(=O)c4ccc(NCC5CCOCC5)c([N+](=O)[O-])c4)c(Oc4cnc5[nH]ccc5c4)c3)CC2)=C(c2ccc(Cl)cc2)C1 ... −7
CN(C)CC#Cc1ccc(OCCCc2sc(N3CCc4cccc(C(=O)Nc5nc6ccccc6s5)c4C3)nc2C(=O)O)c(F)c1 ... 44

We next turn to a different molecule, shown below.
Q. Could you please provide reported Composite Synergy Score for Cc1c(-c2ccc(N3CCc4cccc(C(=O)Nc5nc6ccccc6s5)c4C3)nc2C(=O)O)cnn1CC12CC3CC(CC(C3)C1)C2 ? Thanks!
A. 70

These entries and their values trace back to patent US20260355188A1.
